Source: the supplement of paper PMC10724198

System: Saccharomyces cerevisiae
test.description: protein stability index of tFT-peptide fusion (C-terminal peptide) (PSI (0-1 scale)); higher = more stable (slower turnover)
conditions.used: genetic background: das1 deletion; temperature: 30 C
Kind request: treat 0.7 as inclusive, so protein stability index at 0.7 or higher is 1, anything lower is -1.

For this sequence, is measured protein stability index 0.7 or higher? LENIKKAKEFFQ [GTR1 C-terminal 12 aa]
1

For this sequence, is measured protein stability index 0.7 or higher? TSPRNICTSLCV [SAL1 C-terminal 12 aa]
-1

For this sequence, is measured protein stability index 0.7 or higher? EKVIDGSIEHSS [YNR061C C-terminal 12 aa]
-1
